Where do the numbers come from? From ChEMBL document CHEMBL2010662.

Assay: Inhibition of PDE10
I'd appreciate it if you could supply IC50 values for the items below.
Numbers only, in nM.

For orientation, consider the following solved cases.
COc1ccc(-c2nc(C(=O)NCc3ccc(F)cc3F)c([C@H](C)N)o2)c2ccc(C(F)(F)F)nc12
950
COc1ccc(-c2nc(C(=O)NCc3ccc(F)c(F)c3)c([C@H](C)N)o2)c2ccc(C(F)(F)F)nc12
1400
COc1ccc(-c2nc(C(=O)NCc3ccccc3Cl)c(CN)o2)c2ccc(C(F)(F)F)nc12
610
COc1ccc(-c2nc(C(=O)NCc3c(F)cc(F)cc3F)c([C@H](C)N)o2)c2ccc(C(F)(F)F)nc12
500
COc1ccc(-c2nc(C(=O)NCc3c(F)cccc3Cl)c(CN)o2)c2ccc(C(F)(F)F)nc12
410
COc1ccc(-c2nc(C(=O)NCc3ccc(F)c(F)c3)c(CN)o2)c2ccc(C(F)(F)F)nc12
1300
COc1ccc(-c2nc(C(=O)NCc3ccccc3F)c(CN)o2)c2ccc(C(F)(F)F)nc12
500
COc1ccc(-c2nc(C(=O)NCc3ccc(Cl)cc3Cl)c([C@H](C)N)o2)c2ccc(C(F)(F)F)nc12
1700

Items follow; give IC50 for each.
1. COc1ccc(-c2nc(C(=O)NCc3cccc(Cl)c3)c(CN)o2)c2ccc(C(F)(F)F)nc12
2. COc1ccc(-c2nc(C(=O)NCc3ccc(Cl)cc3)c([C@H](C)N)o2)c2ccc(C(F)(F)F)nc12
3. COc1ccc(-c2nc(C(=O)NCc3ccc(F)cc3F)c(CN)o2)c2ccc(C(F)(F)F)nc12
4. COc1ccc(-c2nc(C(=O)NCc3ccc(Cl)cc3F)c(CN)o2)c2ccc(C(F)(F)F)nc12
5. COc1ccc(-c2nc(C(=O)NCc3ccc(F)cc3)c(CN)o2)c2ccc(C(F)(F)F)nc12

770
650
1000
2200
1300

Fill in IC50 for each of the 5 molecules listed.
1. COc1ccc(-c2nc(C(=O)NCc3ccc(Cl)cc3F)c([C@H](C)N)o2)c2ccc(C(F)(F)F)nc12
2. COc1ccc(-c2nc(C(=O)NCc3cccc(F)c3)c(CN)o2)c2ccc(C(F)(F)F)nc12
3. COc1ccc(-c2nc(C(=O)NCc3c(F)cccc3F)c([C@H](C)N)o2)c2ccc(C(F)(F)F)nc12
4. COc1ccc(-c2nc(C(=O)NCc3c(F)cccc3Cl)c([C@H](C)N)o2)c2ccc(C(F)(F)F)nc12
5. COc1ccc(-c2nc(C(=O)NCc3ccc(Cl)cc3)c(CN)o2)c2ccc(C(F)(F)F)nc12

1: 700; 2: 810; 3: 125; 4: 120; 5: 2100

Dear colleague, could you please provide IC50 for the molecules listed below?
1. COc1ccccc1CNC(=O)c1nc(-c2ccc(OC)c3nc(C(F)(F)F)ccc23)oc1CN
2. COc1ccc(-c2nc(C(=O)NCc3cccc(F)c3)c([C@H](C)N)o2)c2ccc(C(F)(F)F)nc12
3. COc1ccc(-c2nc(C(=O)NCc3ccccc3F)c([C@H](C)N)o2)c2ccc(C(F)(F)F)nc12
4. COc1ccc(-c2nc(C(=O)NCc3ccccc3)c(CN)o2)c2ccc(C(F)(F)F)nc12
5. COc1ccc(-c2nc(C(=O)NCc3c(F)cccc3F)c(CN)o2)c2ccc(C(F)(F)F)nc12

[320, 160, 80, 1200, 240]

Look up IC50: COc1ccc(-c2nc(C(=O)NCc3ccc(Cl)cc3Cl)c(CN)o2)c2ccc(C(F)(F)F)nc12
1300
